Form: system (STE20-like serine/threonine-protein kinase (Homo sapiens)), quantity (ΔTm), values below.
// units = °C; emit number, no label

Completed entries (count: 2):
Compound structure string: O=C1NC(=O)c2c1c1c3ccccc3n3c1c1c2c2ccccc2n1C1CCC3O1
System: STE20-like serine/threonine-protein kinase (Homo sapiens)
ΔTm [°C]: 0.1
--
Compound structure string: NCCNS(=O)(=O)c1cccc2c(Cl)cccc12
System: STE20-like serine/threonine-protein kinase (Homo sapiens)
ΔTm [°C]: 0.1

The compound listed as OC[C@H]1O[C@@H](n2cnc3cc(Cl)c(Cl)cc32)[C@H](O)[C@@H]1O has a reported ΔTm of 0.1

----------
target: Casein kinase I isoform gamma-2 (Homo sapiens)
Here the recorded ΔTm is given for each entry.
// units = °C; emit number, no label

Completed entries (count: 5):
Molecule: O=C(O)Cc1ccc(O)c([N+](=O)[O-])c1
ΔTm, °C: 1
//
Molecule: CC(C)n1cnc2/c(=N/c3cccc(Cl)c3)nc(NCCO)[nH]c21
ΔTm, °C: 4.5
//
Molecule: NCCNc1ncc(C(N)=O)c(Nc2cccc(C(F)(F)F)c2)n1
ΔTm, °C: 0.7
//
Molecule: N#CC(C#N)=Cc1ccc(O)c(O)c1 [TYRPHOSTIN 23]
ΔTm, °C: 0.4
//
Molecule: CC(C)c1nn(-c2c(Cl)cccc2Cl)c2nc(Cc3ccc(OCCO)cc3)[nH]c(=O)c12
ΔTm, °C: -0.3

Item NC1=N/C(=C2/CCNC(=O)c3[nH]ccc32)C(=O)N1 [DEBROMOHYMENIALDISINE] was tested on Casein kinase I isoform gamma-2 (Homo sapiens); the reported ΔTm is 3.5

Item COc1ccc(Cl)cc1NC(=O)Nc1cc(C)nc2ccccc12 was tested on Casein kinase I isoform gamma-2 (Homo sapiens); the reported ΔTm is -0.1

Item CC(C)n1cnc2c(NCc3ccccc3)nc(NCCCO)nc21 was tested on Casein kinase I isoform gamma-2 (Homo sapiens); the reported ΔTm is 1.1

Item O=C1Cc2c([nH]c3ccc(Br)cc23)-c2ccccc2N1 [KENPAULLONE] was tested on Casein kinase I isoform gamma-2 (Homo sapiens); the reported ΔTm is 0

Item CSc1nc(-c2ccc(F)cc2)c(-c2ccnc(NC(C)c3ccccc3)c2)[nH]1 (racemic) was tested on Casein kinase I isoform gamma-2 (Homo sapiens); the reported ΔTm is 3.4

Item O=C1NC(=O)C(c2cn(CCCn3ccnc3)c3ccccc23)=C1Nc1ccccc1 was tested on Casein kinase I isoform gamma-2 (Homo sapiens); the reported ΔTm is 1

Item COc1ccc(COc2ccc(Cc3cnc(N)nc3N)cc2OC)cc1 was tested on Casein kinase I isoform gamma-2 (Homo sapiens); the reported ΔTm is -0.2

----------
Biological target: Serine/threonine-protein kinase Nek2 (Homo sapiens) (UniProt P51955)
Sequence (whole entry): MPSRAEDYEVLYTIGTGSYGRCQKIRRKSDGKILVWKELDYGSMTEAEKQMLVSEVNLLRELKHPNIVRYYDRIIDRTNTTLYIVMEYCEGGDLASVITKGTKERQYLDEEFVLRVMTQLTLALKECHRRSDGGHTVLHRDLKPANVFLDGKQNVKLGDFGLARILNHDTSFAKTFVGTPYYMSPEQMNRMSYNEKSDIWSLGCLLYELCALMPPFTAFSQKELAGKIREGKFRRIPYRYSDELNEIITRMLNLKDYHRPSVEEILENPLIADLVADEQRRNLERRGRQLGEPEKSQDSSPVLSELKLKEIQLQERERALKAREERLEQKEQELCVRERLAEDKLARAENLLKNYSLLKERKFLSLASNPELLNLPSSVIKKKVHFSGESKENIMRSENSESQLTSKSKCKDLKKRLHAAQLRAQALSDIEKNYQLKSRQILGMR
Readout kind: ΔTm (°C)
// units = °C; emit number, no label

The compound listed as CN1CCc2[nH]c(=S)c(C#N)c(-c3cccs3)c2C1 has a reported ΔTm of 1

The compound listed as O=C(O)/C=C/c1cc(CO)ccc1CO has a reported ΔTm of 1

The compound listed as COc1nccc(-c2c(-c3ccc(F)cc3)ncn2[C@H]2CC[C@H](O)CC2)n1 has a reported ΔTm of 1

----------
Form: system (Cyclin-dependent kinase 16 (Homo sapiens)), quantity (ΔTm), values below.
// units = °C; emit number, no label

Compound: Nc1ncnc2c1c(I)cn2[C@@H]1O[C@H](CO)[C@@H](O)[C@H]1O
ΔTm / °C: 0.1

Compound: Cc1c2ccncc2c(C)c2c1[nH]c1ccccc12 [ELLIPTECINE]
ΔTm / °C: -0.4

Compound: NCCNc1ncc(C(N)=O)c(Nc2cccc(C(F)(F)F)c2)n1
ΔTm / °C: 0.1

Compound: COc1cc2c(cc1OC)-c1n[nH]c(Nc3cccc(F)c3)c1C2
ΔTm / °C: -0.3

Compound: C[S+]([O-])c1ccc(CSc2nc(-c3ccc(F)cc3)c(-c3ccncc3)[nH]2)cc1 (stereo unspecified)
ΔTm / °C: -0.7

Turning to the following compound.
Item CN1CCC(Nc2ncc3ncnc(Nc4ccc(F)c(Cl)c4)c3n2)CC1 [FALNIDAMOL] was tested on Cyclin-dependent kinase 16 (Homo sapiens); the reported ΔTm is 7.7

----------
Here the recorded ΔTm is given for each entry.
target: Calcium/calmodulin-dependent protein kinase type II subunit beta (Homo sapiens)
Provide the measurement as a number trailed by its unit.

Completed entries (count: 3):
Compound: CC(C)(C)n1nc(-c2cccc3ccccc23)c2c(N)ncnc21
ΔTm: 0.2 °C
--
Compound: C#Cc1cccc(Nc2ncnc3cc(OCCOC)c(OCCOC)cc23)c1
ΔTm: 0.5 °C
--
Compound: COC1=C2C[C@@H](C)C[C@H](OC)[C@H](O)[C@@H](C)/C=C(\C)[C@H](OC(N)=O)[C@@H](OC)/C=C\C=C(/C)C(=O)NC(=CC1=O)C2=O
ΔTm: -0.1 °C

Turning to the following compound.
Item O=c1ccc2ccc(O)c(O)c2o1 [DAPHNETIN] was tested on Calcium/calmodulin-dependent protein kinase type II subunit beta (Homo sapiens); the reported ΔTm is 0.1 °C

----------
Form: system (Serine/threonine-protein kinase PAK 6 (Homo sapiens) (UniProt Q9NQU5)), quantity (ΔTm), values below.
Provide the measurement as a number trailed by its unit.

Completed entries (count: 10):
Compound: COc1cc2ncnc(Nc3ccc(NC(=O)c4ccccc4)cc3)c2cc1OC
System: Serine/threonine-protein kinase PAK 6 (Homo sapiens) (UniProt Q9NQU5)
Sequence (Q9NQU5 whole entry, looked up): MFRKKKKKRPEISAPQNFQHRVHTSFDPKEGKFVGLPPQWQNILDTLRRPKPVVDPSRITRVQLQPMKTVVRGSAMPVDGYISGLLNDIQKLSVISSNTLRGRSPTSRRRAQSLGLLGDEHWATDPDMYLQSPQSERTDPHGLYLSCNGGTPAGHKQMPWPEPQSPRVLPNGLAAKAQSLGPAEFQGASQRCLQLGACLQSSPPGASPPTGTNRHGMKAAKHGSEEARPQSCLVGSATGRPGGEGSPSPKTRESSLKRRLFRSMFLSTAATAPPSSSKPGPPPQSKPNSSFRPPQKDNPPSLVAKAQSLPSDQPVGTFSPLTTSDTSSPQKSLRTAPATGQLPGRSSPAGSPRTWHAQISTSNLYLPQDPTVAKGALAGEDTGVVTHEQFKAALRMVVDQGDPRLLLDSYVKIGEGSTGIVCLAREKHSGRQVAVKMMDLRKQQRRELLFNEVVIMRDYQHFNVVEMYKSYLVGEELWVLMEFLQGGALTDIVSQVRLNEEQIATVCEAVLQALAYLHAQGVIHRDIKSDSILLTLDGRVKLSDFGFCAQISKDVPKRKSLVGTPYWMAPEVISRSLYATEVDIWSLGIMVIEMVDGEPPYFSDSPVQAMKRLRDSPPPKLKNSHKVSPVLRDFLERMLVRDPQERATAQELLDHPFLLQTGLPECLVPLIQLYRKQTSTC
ΔTm: 0.6 °C

Compound: O=S(=O)(c1cccc2c(Cl)cccc12)N1CCCNCC1
System: Serine/threonine-protein kinase PAK 6 (Homo sapiens) (UniProt Q9NQU5)
ΔTm: -0.1 °C

Compound: CN(C)C[C@@H]1CCn2cc(c3ccccc32)C2=C(C(=O)NC2=O)c2cn(c3ccccc23)CCO1
System: Serine/threonine-protein kinase PAK 6 (Homo sapiens) (UniProt Q9NQU5)
ΔTm: 0.8 °C

Compound: COc1cc(O)c2c(c1)oc(=O)c1c3cc(O)c(O)cc3oc21
System: Serine/threonine-protein kinase PAK 6 (Homo sapiens) (UniProt Q9NQU5)
ΔTm: -0.6 °C

Compound: NC(=O)c1ccc2[nH]c(-c3ccc(Oc4ccc(Cl)cc4)cc3)nc2c1
System: Serine/threonine-protein kinase PAK 6 (Homo sapiens) (UniProt Q9NQU5)
ΔTm: -0.8 °C

Compound: O=c1ccc2ccc(O)c(O)c2o1
System: Serine/threonine-protein kinase PAK 6 (Homo sapiens) (UniProt Q9NQU5)
ΔTm: -0.2 °C

Compound: NC1=N/C(=C2/CCNC(=O)c3[nH]ccc32)C(=O)N1
System: Serine/threonine-protein kinase PAK 6 (Homo sapiens) (UniProt Q9NQU5)
ΔTm: 0.1 °C

Compound: Cl.Cn1cc(C2=C(c3ccc4cc5n(c4c3)CCC(CN)C5)C(=O)NC2=O)c2ccccc21 (stereo not drawn)
System: Serine/threonine-protein kinase PAK 6 (Homo sapiens) (UniProt Q9NQU5)
ΔTm: 0.7 °C

Compound: N#C/C(=C(/N)Sc1ccc(N)cc1)c1ccccc1C(F)(F)F
System: Serine/threonine-protein kinase PAK 6 (Homo sapiens) (UniProt Q9NQU5)
ΔTm: 0.4 °C

Compound: Cc1cc(Nc2nc(-c3ccccc3)nc3ccccc23)n[nH]1
System: Serine/threonine-protein kinase PAK 6 (Homo sapiens) (UniProt Q9NQU5)
ΔTm: 5.4 °C

Item CC(C)(C)c1nc2c3ccc(F)cc3c3c(=O)[nH]ccc3c2[nH]1 was tested on Serine/threonine-protein kinase PAK 6 (Homo sapiens) (UniProt Q9NQU5); the reported ΔTm is 2.3 °C

Item CN1CCC(Nc2ncc3ncnc(Nc4ccc(F)c(Cl)c4)c3n2)CC1 was tested on Serine/threonine-protein kinase PAK 6 (Homo sapiens) (UniProt Q9NQU5); the reported ΔTm is 2.9 °C

Item Cc1cncc2cccc(S(=O)(=O)N3CCCNC[C@@H]3C)c12 was tested on Serine/threonine-protein kinase PAK 6 (Homo sapiens) (UniProt Q9NQU5); the reported ΔTm is 0.7 °C

----------
biological target: Calcium/calmodulin-dependent protein kinase type II subunit gamma (Homo sapiens) (UniProt Q13555)
Sequence (Q13555 whole entry): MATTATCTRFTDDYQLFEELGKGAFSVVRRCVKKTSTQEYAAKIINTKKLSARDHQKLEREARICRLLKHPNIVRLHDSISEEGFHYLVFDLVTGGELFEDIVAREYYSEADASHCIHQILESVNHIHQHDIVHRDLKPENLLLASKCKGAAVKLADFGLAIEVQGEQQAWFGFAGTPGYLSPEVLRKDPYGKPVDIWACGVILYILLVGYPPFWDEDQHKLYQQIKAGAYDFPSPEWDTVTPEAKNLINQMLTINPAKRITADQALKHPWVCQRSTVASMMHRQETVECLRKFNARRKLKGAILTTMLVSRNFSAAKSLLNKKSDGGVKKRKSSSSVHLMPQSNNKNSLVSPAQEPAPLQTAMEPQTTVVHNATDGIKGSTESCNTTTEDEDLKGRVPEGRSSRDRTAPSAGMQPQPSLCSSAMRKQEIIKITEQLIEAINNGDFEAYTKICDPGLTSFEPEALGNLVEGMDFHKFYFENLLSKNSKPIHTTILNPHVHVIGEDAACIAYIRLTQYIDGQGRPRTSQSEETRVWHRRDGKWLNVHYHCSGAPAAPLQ
Here the recorded ΔTm is given for each entry.
// units = °C; emit number, no label

Molecule: CC(C)n1cnc2c(NCc3ccccc3)nc(NCCCO)nc21
Unit name: °C
ΔTm: 0.3
//
Molecule: C#Cc1cccc(Nc2ncnc3cc(OCCOC)c(OCCOC)cc23)c1
Unit name: °C
ΔTm: 0.3

The molecule listed as NS(=O)(=O)c1ccc(Nc2nc(OCC3CCCCC3)c3nc[nH]c3n2)cc1 has a reported ΔTm of 0.3

The molecule listed as O=C1NC(=O)c2c1c1c3ccccc3n3c1c1c2c2ccccc2n1C1CCC3O1 has a reported ΔTm of 0

The molecule listed as C[C@@H](N)[C@H]1CC[C@H](C(=O)Nc2ccncc2)CC1 has a reported ΔTm of 1

The molecule listed as Cc1nc(Nc2ncc(C(=O)Nc3c(C)cccc3Cl)s2)cc(N2CCN(CCO)CC2)n1 has a reported ΔTm of -0.3

The molecule listed as O=[N+]([O-])c1ccc(-c2nc(-c3ccc(F)cc3)c(-c3ccncc3)[nH]2)cc1 has a reported ΔTm of -0.3

The molecule listed as CCN(CC)CCNC(=O)c1c(C)[nH]c(/C=C2\C(=O)Nc3ccc(Cl)cc32)c1C has a reported ΔTm of 6.2
